# study target: Cholecystokinin receptor type A (Rattus norvegicus, UniProt P30551)
# Sequence (P30551 whole entry): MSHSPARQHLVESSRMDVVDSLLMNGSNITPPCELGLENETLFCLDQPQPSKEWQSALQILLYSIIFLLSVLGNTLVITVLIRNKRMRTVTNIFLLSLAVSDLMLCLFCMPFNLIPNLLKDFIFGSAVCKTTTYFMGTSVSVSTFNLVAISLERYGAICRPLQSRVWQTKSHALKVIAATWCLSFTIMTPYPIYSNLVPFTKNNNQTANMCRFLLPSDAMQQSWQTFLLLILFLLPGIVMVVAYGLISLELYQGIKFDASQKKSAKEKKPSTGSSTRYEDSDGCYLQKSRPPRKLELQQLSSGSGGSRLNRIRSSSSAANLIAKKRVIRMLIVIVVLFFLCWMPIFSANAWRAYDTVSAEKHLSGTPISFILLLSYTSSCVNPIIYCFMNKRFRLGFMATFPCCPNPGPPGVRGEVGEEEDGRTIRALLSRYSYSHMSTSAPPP
# assay name: In vitro inhibition of [3H]propionyl-CCK-8 binding to rat pancreatic membranes at Cholecystokinin type A receptor.
pIC50: −log10 of the molar value.
measured property: pIC50

Before answering, review these 4 worked examples.
Prompt line: Give the measured pIC50 of `O=C(O)C[C@H](Cc1ccccc1)NC(=O)[C@H]1Cc2c([nH]c3ccccc23)[C@@H]2C[C@@H](NC(=O)OCc3ccccc3)C(=O)N12` .
Response line: 7.01

Prompt line: Similarly, `COC(=O)[C@H](Cc1ccccc1)NC(=O)[C@H]1Cc2c([nH]c3ccccc23)[C@@H]2C[C@@H](NC(=O)OCc3ccccc3)C(=O)N12` ?
Response line: 6.35

Prompt line: Now the compound `COC(=O)[C@H](Cc1ccccc1)NC(=O)[C@@H]1Cc2c([nH]c3ccccc23)[C@H]2C[C@H](NC(=O)OCc3ccccc3)C(=O)N21`
Response line: 7.32

Prompt line: `O=C(N[C@H]1C[C@@H]2c3[nH]c4ccccc4c3C[C@@H](C(=O)N[C@@H](Cc3ccccc3)C(=O)O)N2C1=O)OCc1ccccc1` , same question.
Response line: 8.33

P: O=C(N[C@H]1C[C@@H]2c3[nH]c4ccccc4c3C[C@@H](C(=O)N[C@H](Cc3ccccc3)C(=O)O)N2C1=O)OCc1ccccc1
Q: O=C(N[C@@H]1C[C@H]2c3[nH]c4ccccc4c3C[C@H](C(=O)N[C@@H](Cc3ccccc3)C(=O)O)N2C1=O)OCc1ccccc1
Prompt line: Smaller pIC50 value? Options are P and Q Write down the label of the entry you select.
Response line: P

###

# study target: Gastrin/cholecystokinin type B receptor (Rattus norvegicus, UniProt P30553)
# Sequence (P30553 whole entry): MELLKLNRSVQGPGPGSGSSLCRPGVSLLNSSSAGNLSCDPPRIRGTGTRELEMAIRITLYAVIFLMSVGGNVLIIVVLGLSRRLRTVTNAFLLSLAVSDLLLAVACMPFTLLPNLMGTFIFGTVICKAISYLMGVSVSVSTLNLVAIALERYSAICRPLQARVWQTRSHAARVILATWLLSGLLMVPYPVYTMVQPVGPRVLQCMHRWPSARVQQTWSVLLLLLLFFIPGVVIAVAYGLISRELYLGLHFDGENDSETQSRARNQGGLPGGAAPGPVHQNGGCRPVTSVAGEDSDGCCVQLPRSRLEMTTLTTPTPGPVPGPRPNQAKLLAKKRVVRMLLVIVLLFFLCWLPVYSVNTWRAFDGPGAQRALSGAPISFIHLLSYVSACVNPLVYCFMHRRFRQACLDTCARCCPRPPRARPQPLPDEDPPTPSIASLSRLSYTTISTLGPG
# assay name: In vitro inhibition of [3H]propionyl-CCK-8 binding to rat cerebral cortex membranes at Cholecystokinin type B receptor.
pIC50: −log10 of the molar value.
measured property: pIC50

Prompt line: Quick one: pIC50 for `COC(=O)C[C@@H](Cc1ccccc1)NC(=O)[C@H]1Cc2c([nH]c3ccccc23)[C@@H]2C[C@@H](NC(=O)OCc3ccccc3)C(=O)N12` ?
Response line: 5.31

A: O=C(N[C@@H]1C[C@H]2c3[nH]c4ccccc4c3C[C@H](C(=O)N[C@@H](Cc3ccccc3)C(=O)O)N2C1=O)OCc1ccccc1
B: O=C(N[C@@H]1C[C@H]2c3[nH]c4ccccc4c3C[C@H](C(=O)N[C@H](Cc3ccccc3)C(=O)O)N2C1=O)OCc1ccccc1
Prompt line: Could you check which of A and B has a smaller value for pIC50? Provide the label of your selected option as the answer.
Response line: B
(B: 5.43, A: 6.69)

###

# study target: Gastrin/cholecystokinin type B receptor (Rattus norvegicus)
# assay name: In vitro inhibition of [3H]propionyl-CCK-8 binding to rat cerebral cortex membranes at Cholecystokinin type B receptor.
pIC50: −log10 of the molar value.
Examples of molecules with documented pIC50 follow.

Solved entries (count: 8):
Prompt line: Please report the recorded pIC50 for `COC(=O)[C@H](Cc1ccccc1)NC(=O)[C@@H]1Cc2c([nH]c3ccccc23)[C@H]2C[C@H](NC(=O)OCc3ccccc3)C(=O)N21` .
Response line: < 5.00

Prompt line: Record: `O=C(N[C@H]1C[C@@H]2c3[nH]c4ccccc4c3C[C@@H](C(=O)N[C@H](Cc3ccccc3)C(=O)O)N2C1=O)OCc1ccccc1`
Response line: < 5.00

Prompt line: Now the same for `O=C(O)C[C@@H](Cc1ccccc1)NC(=O)[C@@H]1Cc2c([nH]c3ccccc23)[C@H]2C[C@H](NC(=O)OCc3ccccc3)C(=O)N21`
Response line: 5.57

Prompt line: Now give it for `O=C(N[C@H]1C[C@@H]2c3[nH]c4ccccc4c3C[C@@H](C(=O)N[C@@H](Cc3ccccc3)C(=O)O)N2C1=O)OCc1ccccc1` too.
Response line: < 5.00

Prompt line: # repeat for `O=C(O)C[C@H](Cc1ccccc1)NC(=O)[C@H]1Cc2c([nH]c3ccccc23)[C@@H]2C[C@@H](NC(=O)OCc3ccccc3)C(=O)N12`
Response line: < 5.00

Prompt line: Consider next the molecule `O=C(O)C[C@H](Cc1ccccc1)NC(=O)[C@@H]1Cc2c([nH]c3ccccc23)[C@H]2C[C@H](NC(=O)OCc3ccccc3)C(=O)N21` in the same way.
Response line: < 5.00

Prompt line: Another molecule to check: `COC(=O)C[C@H](Cc1ccccc1)NC(=O)[C@H]1Cc2c([nH]c3ccccc23)[C@@H]2C[C@@H](NC(=O)OCc3ccccc3)C(=O)N12`
Response line: < 5.00

Prompt line: Now the molecule `COC(=O)[C@@H](Cc1ccccc1)NC(=O)[C@H]1Cc2c([nH]c3ccccc23)[C@@H]2C[C@@H](NC(=O)OCc3ccccc3)C(=O)N12`
Response line: < 5.00

Others:
Prompt line: Endpoint output: pIC50 of `COC(=O)[C@@H](Cc1ccccc1)NC(=O)[C@@H]1Cc2c([nH]c3ccccc23)[C@H]2C[C@H](NC(=O)OCc3ccccc3)C(=O)N21` . Value?
Response line: < 5.00

Prompt line: Same again, this time with `COC(=O)[C@H](Cc1ccccc1)NC(=O)[C@H]1Cc2c([nH]c3ccccc23)[C@@H]2C[C@@H](NC(=O)OCc3ccccc3)C(=O)N12`
Response line: 5.25

###

# study target: Gastrin/cholecystokinin type B receptor (Rattus norvegicus)
# assay name: In vitro inhibition of [3H]propionyl-CCK-8 binding to rat cerebral cortex membranes at Cholecystokinin type B receptor.
pIC50: −log10 of the molar value.
measured property: pIC50

Worked set:
Prompt line: Which measured pIC50 value corresponds to `O=C(O)C[C@@H](Cc1ccccc1)NC(=O)[C@H]1Cc2c([nH]c3ccccc23)[C@@H]2C[C@@H](NC(=O)OCc3ccccc3)C(=O)N12` ?
Response line: < 5.00

Prompt line: Same again, this time with `NC(=O)[C@@H](Cc1ccccc1)NC(=O)[C@@H]1Cc2c([nH]c3ccccc23)[C@H]2C[C@H](NC(=O)OCc3ccccc3)C(=O)N21`
Response line: < 5.00

Okay, next one:
Prompt line: Give its pIC50 value. Item: `NC(=O)[C@H](Cc1ccccc1)NC(=O)[C@@H]1Cc2c([nH]c3ccccc23)[C@H]2C[C@H](NC(=O)OCc3ccccc3)C(=O)N21`
Response line: < 5.00
